target_or_test_system: SARS2 protease (Severe acute respiratory syndrome coronavirus 2)
Construct: SARS2 protease was added to a final concentration of 30 nM
experimental_protocol: SARS-CoV-2 protease inhibition assay (SARS2 FRET protease assay)
Format: biochemical
test_settings: IC50 (μM), SARS2 protease 30 nM, peptide substrate 1.3 μM, 120 minutes at 37° C., compounds 20 μM to 0.075 nM
Measured IC50, listed per entry for reference.
Write the answer as a number in µM, unit excluded.

molecule=O=C(N[C@@H](CC1CCCCC1)C(=O)N[C@@H](C[C@@H]1CCNC1=O)C(=O)C(=O)NC1CC1)O[C@@H](c1ccccc1)C(F)(F)c1cccc(Cl)c1 target_or_test_system="SARS2 protease (Severe acute respiratory syndrome coronavirus 2)" measured_value=0.0289
molecule="CCNC(=O)C(=O)[C@H](C[C@@H]1CCNC1=O)NC(=O)[C@H](CC1CCCCC1)NC(=O)OC(c1ccccc1)C(F)(F)c1cccc(Cl)c1 (stereo partly shown)" target_or_test_system="SARS2 protease (Severe acute respiratory syndrome coronavirus 2)" measured_value=0.01
molecule=CCC[C@H](NC(=O)O[C@H](c1ccccc1)C(F)(F)c1cccc(F)c1)C(=O)N[C@H](C=O)C[C@@H]1CCNC1=O target_or_test_system="SARS2 protease (Severe acute respiratory syndrome coronavirus 2)" measured_value=0.0185

Ask: Request the reported IC50 associated with `O=C[C@H](C[C@@H]1CCNC1=O)NC(=O)[C@H](CC1CCCCC1)NC(=O)O[C@@H](c1ccccc1)C(F)(F)c1cccc(Cl)c1`
Reply: 0.0042

---

target_or_test_system: SARS2 protease (Severe acute respiratory syndrome coronavirus 2, UniProt P0DTD1)
Construct: SARS2 protease was added to a final concentration of 30 nM
experimental_protocol: SARS-CoV-2 protease inhibition assay (SARS2 FRET protease assay)
Type: biochemical
test_settings: IC50 (μM), SARS2 protease 30 nM, peptide substrate 1.3 μM, 120 minutes at 37° C., compounds 20 μM to 0.075 nM
Checkbox rule: IC50 lower than 200 nM = Condition met; IC50 not lower than 200 nM = Condition not met.

Example cases with answers are listed next.
molecule="CC(C)(c1cccc(F)c1)C(OC(=O)N[C@@H](CC1CCCCC1)C(=O)N[C@H](C=O)C[C@@H]1CCNC1=O)c1ccccc1 (some centres unmarked)" label_class="Condition met"
molecule="CCCC[C@H](NC(=O)OC(c1ccn(C)n1)C(F)(F)c1cccc(Cl)c1)C(=O)N[C@H](C=O)C[C@@H]1CCNC1=O (some centres unmarked)" label_class="Condition met"
molecule="CCNC(=O)C(=O)[C@H](C[C@@H]1CCNC1=O)NC(=O)[C@H](CC1CCC1)NC(=O)OC(c1ccccc1)C(F)(F)c1cccc(Cl)c1 (some centres unmarked)" label_class="Condition met"

Ask: # TODO verify IC50 < 200 nM strictly for this molecule: CC(C)C[C@H](NC(=O)OC(C(C)C)C(F)(F)c1cccc(C2CC2)c1)C(=O)N[C@@H](C[C@@H]1CCNC1=O)C(=O)C(=O)NC1CC1 (some centres unmarked)
Reply: Condition not met

Ask: Just wondering, is IC50 of CCCC[C@H](NC(=O)O[C@H](c1ccccc1)C(F)(F)c1cccc(Cl)c1)C(=O)N[C@@H](C[C@@H]1CCNC1=O)C(O)S(=O)(=O)O (some centres unmarked) below 200 nM?
Reply: Condition met

Ask: Check if IC50 falls below 200 nM for `CCCC[C@H](NC(=O)O[C@@H](c1ccccc1)C(F)(F)c1cccc(Cl)c1)C(=O)N[C@@H](C[C@@H]1CCCNC1=O)C(=O)C(=O)NC1CC1` .
Reply: Condition not met

Ask: Dear colleague, could you confirm whether IC50 of CCC(=O)OC([C@H](C[C@@H]1CCNC1=O)NC(=O)[C@H](CC1CCCCC1)NC(=O)O[C@H](c1ccccc1)C(F)(F)c1cccc(Cl)c1)S(=O)(=O)O (some centres unmarked) falls below 200 nM? Thanks.
Reply: Condition not met

Ask: Check if IC50 falls below 200 nM for CCNC(=O)C(=O)[C@H](C[C@@H]1CCNC1=O)NC(=O)[C@H](Cc1ccccc1)NC(=O)OC(C1CCCCC1)C(F)(F)c1cccc(Cl)c1 (some centres unmarked) .
Reply: Condition not met

Ask: Is 200 nM strictly greater than the molecule's reported IC50? molecule: `CC(C)C[C@H](NC(=O)O[C@@H](C(C)C)C(F)(F)c1cccc(-c2ccccc2)c1)C(=O)N[C@@H](C[C@@H]1CCNC1=O)C(=O)C(=O)NC1CC1`
Reply: Condition met

Ask: Strictly below 200 nM in IC50? CCNC(=O)C(=O)[C@H](C[C@@H]1CCNC1=O)NC(=O)[C@H](Cc1ccc(Cl)cc1)NC(=O)OC(c1ccccc1)C(F)(F)c1cccc(Cl)c1 (some centres unmarked)
Reply: Condition not met

Ask: Given CC(C)C[C@H](NC(=O)OC(c1ccccc1)C(F)(F)c1cccc(-c2ccccc2)c1)C(=O)N[C@@H](C[C@@H]1CCNC1=O)C(=O)C(=O)NC1CC1 (some centres unmarked) , is recorded IC50 strictly lower than 200 nM?
Reply: Condition met

Ask: Quick check: IC50 of CCCC[C@H](NC(=O)OC(c1ccccc1)C(F)(F)c1cccc(Cl)c1)C(=O)N[C@@H](C[C@@H]1CCNC1=O)C(=O)c1nc2ccccc2s1 (some centres unmarked) under 200 nM?
Reply: Condition not met

Ask: Determine whether this molecule shows IC50 lower than 200 nM (ties excluded): `CC(C)C[C@H](NC(=O)O[C@@H](c1cccc(Cl)c1)C1(c2cccc(Cl)c2)CCCCC1)C(=O)N[C@H](C=O)C[C@@H]1CCNC1=O`
Reply: Condition met

Ask: Item CC(C)C[C@H](NC(=O)OC(c1ccc(Cl)cc1)C1(c2cccc(Cl)c2)CCN(C(=O)OC(C)(C)C)CC1)C(=O)N[C@H](C=O)C[C@@H]1CCNC1=O (some centres unmarked) : IC50 beneath 200 nM, strictly?
Reply: Condition not met

Ask: Please let me know if CCCC[C@H](NC(=O)OC(c1ccc(F)cc1)C(F)(F)c1cccc(F)c1)C(=O)N[C@@H](C[C@@H]1CCNC1=O)C(=O)C(=O)NC1CC1 (some centres unmarked) shows IC50 below 200 nM.
Reply: Condition met

Ask: Please determine if CCCC[C@H](NC(=O)O[C@@H](c1ccccc1)C(F)(F)c1cccc(Cl)c1)C(=O)N[C@@H](C[C@@H]1CCNC1=O)C(O)S(=O)(=O)O (some centres unmarked) is below 200 nM in terms of IC50.
Reply: Condition met

Ask: Lab log: compare recorded IC50 with 200 nM; is it strictly lower for O=C[C@H](C[C@@H]1CCNC1=O)NC(=O)[C@H](CCC(F)F)NC(=O)OC(c1ccccc1)C(F)(F)c1cccc(Cl)c1 (some centres unmarked) ?
Reply: Condition met

Ask: Consider `O=C[C@H](C[C@@H]1CCNC1=O)NC(=O)[C@H](CC1CCCCC1)NC(=O)O[C@@H](c1ccccc1)C(F)(F)c1cccc(F)c1` . Does its IC50 lie strictly below 200 nM?
Reply: Condition met

Ask: Report whether reported IC50 is lower than 200 nM (strictly) for `O=C[C@H](C[C@@H]1CCNC1=O)NC(=O)[C@H](Cc1ccccc1)NC(=O)OCCCc1ccccc1`
Reply: Condition not met

---

target_or_test_system: SARS2 protease (Severe acute respiratory syndrome coronavirus 2, UniProt P0DTD1)
Construct: SARS2 protease was added to a final concentration of 30 nM
experimental_protocol: SARS-CoV-2 protease inhibition assay (SARS2 FRET protease assay)
Format: biochemical
test_settings: IC50 (μM), SARS2 protease 30 nM, peptide substrate 1.3 μM, 120 minutes at 37° C., compounds 20 μM to 0.075 nM
measured_attribute: IC50

In the examples that follow, each entry is paired with its recorded IC50.
molecule=CCCC[C@H](NC(=O)O[C@@H](c1ccccc1)C(F)(F)c1cccc(F)c1)C(=O)N[C@H](C=O)C[C@@H]1CCNC1=O measured_attribute=IC50 measured_value="0.004 µM"
molecule="CCCC[C@H](NC(=O)OC(c1ccccc1)C(F)(F)c1cccc(Cl)c1)C(=O)N[C@@H](C[C@H]1CCNC1=O)C(=O)C(=O)NC1CC1 (stereo partly drawn)" measured_attribute=IC50 measured_value="0.75 µM"
molecule="O=C(N[C@@H](CC1CCCCC1)C(=O)N[C@@H](C[C@@H]1CCNC1=O)C(O)S(=O)(=O)O)O[C@H](c1ccccc1)C(F)(F)c1cccc(F)c1 (stereo partly drawn)" measured_attribute=IC50 measured_value="0.025 µM"
molecule="CC(C)C[C@H](NC(=O)OC(c1ccccc1)C(C)(C)c1cccc(Cl)c1)C(=O)N[C@H](C=O)C[C@@H]1CCCNC1=O (stereo partly drawn)" measured_attribute=IC50 measured_value="0.009 µM"
molecule=CCNC(=O)C(=O)[C@H](C[C@@H]1CCNC1=O)NC(=O)[C@@H](CC1(CC)CCC1)NC(=O)O[C@@H](c1ccccc1)C(F)(F)c1cccc(Cl)c1 measured_attribute=IC50 measured_value="0.0001 µM"

Ask: Entry under review: CCC(=O)OC([C@H](C[C@@H]1CCNC1=O)NC(=O)[C@H](CC1CCCCC1)NC(=O)O[C@@H](c1ccccc1)C(F)(F)c1cccc(Cl)c1)S(=O)(=O)O (stereo partly drawn) [Compound A229] . Reported IC50?
Reply: ≥ 20 µM

Ask: Looking for the measured IC50 of O=C[C@H](C[C@@H]1CCNC1=O)NC(=O)[C@H](CC1CCC1)NC(=O)OC(c1ccccc1)C(F)(F)c1cccc(Cl)c1 (stereo partly drawn) , can you help?
Reply: 0.0001 µM

Ask: What value of IC50 has been recorded for this entry: O=C[C@H](C[C@@H]1CCNC1=O)NC(=O)[C@H](Cc1ccc(Cl)cc1)NC(=O)OC(c1ccccc1)C(F)(F)c1cccc(Cl)c1 (stereo partly drawn)
Reply: 0.203 µM

Ask: If you can, please state the reported IC50 value of O=C(N[C@@H](CC1CCCCC1)C(=O)N[C@@H](C[C@@H]1CCNC1=O)C(O)S(=O)(=O)O)O[C@@H](c1ccccc1)C(F)(F)c1cccc(Cl)c1 (stereo partly drawn) .
Reply: 0.055 µM

Ask: Entry CCCC[C@H](NC(=O)OC(c1ccccc1)C(C)(C)c1cccc(F)c1)C(=O)N[C@H](C=O)C[C@@H]1CCNC1=O (stereo partly drawn) has what IC50?
Reply: 0.91 µM

Ask: Would you kindly share the measured IC50 for CC(C)C[C@H](NC(=O)OC(c1ccccc1)C(F)(F)c1cccc(Cl)c1)C(=O)N[C@H](C#N)C[C@@H]1CCNC1=O (stereo partly drawn) ?
Reply: 2.29 µM

Ask: Requested field: IC50. Item: `CCCC[C@H](NC(=O)O[C@@H](c1ccccc1)C(C)(C)c1cccc(Cl)c1)C(=O)N[C@H](C=O)C[C@H]1CCNC1=O`
Reply: < 0.0001 µM
